measurement.type: melting point

Past entries and their recorded results:
# record.smiles, melting point
measured = [
    ("CCn1c(C)c(Cl)s/c1=N\\C(=O)c1cccc(C(F)(F)F)c1F", "158 to 160 °C"),
    ("Cc1c(C(C)(C)C)s/c(=N\\C(=O)c2nccnc2Cl)n1CC1CC1", "115 to 116 °C"),
    ("Cc1c(C(=O)N2CCCC2)s/c(=N\\C(=O)c2cccc(C(F)(F)F)c2)n1CC1CC1", "125 to 127 °C"),
]

// query Entry under review: Cc1cc(Cl)ccc1C(=O)/N=c1\sc(C(C)(C)C)c(C)n1CC1CC1 . Reported melting point?
// result 108 to 109 °C

// query Entry under review: Cc1c(C(C)(C)C)s/c(=N\C(=O)c2cc(F)c(F)cc2Cl)n1C . Reported melting point?
// result 145 to 146 °C

// query Entry under review: CCn1cccc/c1=N\C(=O)c1cccc(C(F)(F)F)c1F . Reported melting point?
// result 93 to 95 °C
